Would you mind telling me the reported Ki of each entry?
Please make sure the unit comes right after the number.

Sodium-dependent dopamine transporter (Rattus norvegicus, UniProt P23977) assay, compound `C[C@H](O)CN1CCC(CCSC(c2ccc(F)cc2)c2ccc(F)cc2)CC1` , recorded Ki = 34.5 nM

Item: [O-][S+](CCN1CCCN(CC(O)Cc2ccccc2)CC1)C(c1ccc(F)cc1)c1ccc(F)cc1 (stereo not given) | System: Sodium-dependent dopamine transporter (Rattus norvegicus, UniProt P23977) | Ki: 8.37 nM

The value of Ki recorded for CC(O)CN1CCC(CCSC(c2ccc(F)cc2)c2ccc(F)cc2)CC1 (stereo not given) when tested on Sodium-dependent dopamine transporter (Rattus norvegicus, UniProt P23977) reads 67 nM

# Ki measured on Sodium-dependent dopamine transporter (Rattus norvegicus, UniProt P23977) for item CC(O)CN1CCCN(CCSC(c2ccc(F)cc2)c2ccc(F)cc2)CC1 (stereo not given) = 63.4 nM

Tested on Sodium-dependent dopamine transporter (Rattus norvegicus, UniProt P23977), the item OC(Cc1ccccc1)CN1CCC(CCSC(c2ccc(F)cc2)c2ccc(F)cc2)CC1 (stereo not given) showed Ki equal to 5.83 nM

With Sodium-dependent dopamine transporter (Rattus norvegicus, UniProt P23977) as the test system, `Fc1ccc(C(SCCN2CCN(c3ncccn3)CC2)c2ccc(F)cc2)cc1` showed Ki of 725 nM

Item: [O-][S+](CCN1CCN(c2ncccn2)CC1)C(c1ccc(F)cc1)c1ccc(F)cc1 (stereo not given) | System: Sodium-dependent dopamine transporter (Rattus norvegicus, UniProt P23977) | Ki: 22100 nM

Simply: [O-][S+](CCN1CCCN(CC(O)Cc2ccc(F)cc2)CC1)C(c1ccc(F)cc1)c1ccc(F)cc1 (stereo not given) , Sodium-dependent dopamine transporter (Rattus norvegicus, UniProt P23977), Ki = 6.81 nM

// returns Ki for `Fc1ccc(C(SCCN2CCCN(c3ncccn3)CC2)c2ccc(F)cc2)cc1` with Sodium-dependent dopamine transporter (Rattus norvegicus, UniProt P23977); value = 508 nM

Recorded Ki for C[C@@H](O)CN1CCC(CC[S+]([O-])C(c2ccc(F)cc2)c2ccc(F)cc2)CC1 (stereo not given in full) on Sodium-dependent dopamine transporter (Rattus norvegicus, UniProt P23977) was 276 nM
